Listed here: molecules with reported log10 Ki for 5-hydroxytryptamine receptor 2B (Rattus norvegicus, UniProt P30994).
Use the decimal logarithm of Ki (nM).

Here's what some known entries look like.
Molecule	log10 Ki
NCCc1c[nH]c2ccc(Br)cc12	1.59
CN1CC(C(=O)N[C@]2(C)O[C@@]3(O)C4CCCN4C(=O)[C@H](Cc4ccccc4)N3C2=O)CC2c3cccc4[nH]cc(c34)CC21 (stereo not given in full)	2.16
CCN(CC)C(=O)[C@@H]1C=C2c3cccc4[nH]c(Br)c(c34)C[C@H]2N(C)C1	1.10
CN1CCC(=C2c3ccccc3CCc3sccc32)CC1	1.59
Cn1cc(CCN)c2cc(O)ccc21	1.02

stdin: API: value(readout=log10 Ki, system=5-hydroxytryptamine receptor 2B (Rattus norvegicus, UniProt P30994)) for record COc1cc(CC(C)N)c(OC)cc1I (stereo not given) [[125I]2,5-dimethoxy-4-iodoamphetamine]
stdout: 1.44

stdin: Short answer please: log10 Ki, 5-hydroxytryptamine receptor 2B (Rattus norvegicus, UniProt P30994), entry NCCc1c[nH]c2ccccc12
stdout: 2.30

stdin: Query for 5-hydroxytryptamine receptor 2B (Rattus norvegicus, UniProt P30994): what log10 Ki does the record show for FC(F)(F)c1cccc(N2CCNCC2)c1 ?
stdout: 1.93

stdin: Can you look up log10 Ki on 5-hydroxytryptamine receptor 2B (Rattus norvegicus, UniProt P30994) for Cc1[nH]c2ccc(O)cc2c1CCN ?
stdout: 2.50

stdin: I'm curious: which log10 Ki was measured for O=C(c1ccc(F)cc1)C1CCN(CCn2c(=O)[nH]c3ccccc3c2=O)CC1 tested on 5-hydroxytryptamine receptor 2B (Rattus norvegicus, UniProt P30994)?
stdout: 3.55

----------
Test target: 5-hydroxytryptamine receptor 1F (Rattus norvegicus)
Sequence (P30940 whole entry): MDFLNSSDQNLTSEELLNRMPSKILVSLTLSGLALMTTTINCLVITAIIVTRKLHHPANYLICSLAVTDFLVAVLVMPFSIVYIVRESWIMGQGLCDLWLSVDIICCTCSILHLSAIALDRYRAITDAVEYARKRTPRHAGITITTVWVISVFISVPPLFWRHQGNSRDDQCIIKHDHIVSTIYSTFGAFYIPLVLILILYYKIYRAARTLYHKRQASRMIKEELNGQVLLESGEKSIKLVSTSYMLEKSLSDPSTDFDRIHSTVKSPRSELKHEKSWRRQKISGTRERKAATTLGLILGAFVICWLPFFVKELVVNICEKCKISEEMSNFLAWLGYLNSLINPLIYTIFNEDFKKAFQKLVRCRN
Observed property: pKi
Here pKi is given on a logarithmic scale as minus log10 of the concentration in mol/L.

Recorded pKi, per entry:
Molecule	pKi
CC[C@@H](CO)NC(=O)[C@@H]1C=C2c3cccc4c3c(cn4C)C[C@H]2N(C)C1	7.87
CN1C[C@H](C(=O)N[C@]2(C)O[C@@]3(O)[C@@H]4CCCN4C(=O)[C@H](Cc4ccccc4)N3C2=O)C=C2c3cccc4[nH]cc(c34)C[C@H]21	7.28
CSc1ccc2c(c1)C(N1CCN(C)CC1)Cc1ccccc1S2 (configuration not stated)	6.00
COC(=O)[C@@H]1[C@H]2C[C@H]3c4[nH]c5ccccc5c4CCN3C[C@@H]2CC[C@@H]1O	6.25
NCCc1c[nH]c2ccc(C(N)=O)cc12 [[3H]-5-carboxamidotryptamine]	5.61

stdin: Please tell me: pKi of CN1C[C@H](CNC(=O)OCc2ccccc2)C[C@@H]2c3cccc4c3c(cn4C)C[C@H]21 , system 5-hydroxytryptamine receptor 1F (Rattus norvegicus)?
stdout: 6.29

stdin: # returns recorded pKi (system: 5-hydroxytryptamine receptor 1F (Rattus norvegicus)) for NCCc1c[nH]c2ccc(O)cc12 [[3H]-5-HT]
stdout: 7.17

----------
Test target: 5-hydroxytryptamine receptor 5A (Rattus norvegicus)
Sequence (P35364 whole entry): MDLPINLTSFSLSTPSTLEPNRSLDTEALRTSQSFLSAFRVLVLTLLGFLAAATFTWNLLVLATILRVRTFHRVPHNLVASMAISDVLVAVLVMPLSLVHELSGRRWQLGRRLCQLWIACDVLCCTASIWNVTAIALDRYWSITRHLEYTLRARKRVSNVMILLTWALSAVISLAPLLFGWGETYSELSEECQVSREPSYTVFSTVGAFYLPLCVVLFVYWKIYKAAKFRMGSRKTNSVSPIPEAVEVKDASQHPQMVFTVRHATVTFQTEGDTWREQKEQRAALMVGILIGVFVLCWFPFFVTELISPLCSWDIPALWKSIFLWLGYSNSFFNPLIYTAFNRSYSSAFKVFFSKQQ
Observed property: pKi
Units for pKi: none; it is -log10 of a concentration expressed in mol/L.

Example entries begin here.
Compound	Recorded result
NCCc1c[nH]c2ccc(O)cc12 [[3H]-5-HT]	6.62
CC[C@@H](CO)NC(=O)[C@@H]1C=C2c3cccc4c3c(cn4C)C[C@H]2N(C)C1	6.71

stdin: Reported pKi for 5-hydroxytryptamine receptor 5A (Rattus norvegicus), given NCCc1c[nH]c2ccc(C(N)=O)cc12 [[3H]-5-carboxamidotryptamine] ?
stdout: 7.90
